Give pIC50 for every item shown.
- Target or test system: Calpain-1 catalytic subunit (Homo sapiens)
- Method: Inhibitory activity evaluated against recombinant human calpain 1
Non-standard residues stand in square brackets, D forms with d. Residues, ends and D or L forms follow the SMILES beside them. *: point of attachment. Nle = CCCC[C@H](N)C(=O)O; Cbz = O=C(OCc1ccccc1)*
Keep in mind that pIC50 stands for -log10 of concentration in molar terms.

q: Find the recorded pIC50 belonging to CCCC[C@@H](C=O)NC(=O)[C@H](CC(C)C)NC(=O)[C@H](CC(C)C)NC(C)=O (Ac-Leu-Leu-[Nle]-aldehyde) and report it.
a: 7.92

q: Any idea what pIC50 was measured for CC(C)C[C@@H](C=O)NC(=O)[C@H](CCC(N)=O)NC(=O)OCc1ccccc1 (Cbz-Gln-Leu-aldehyde) ?
a: 6.43

q: For `CC(C)C[C@@H](C=O)NC(=O)[C@@H](NC(=O)OCc1ccccc1)[C@H](C)O` , what is its reported pIC50?
a: 6.72

* * *

- Target or test system: Calpain-1 catalytic subunit (Homo sapiens, UniProt P07384)
- Sequence (P07384 whole entry): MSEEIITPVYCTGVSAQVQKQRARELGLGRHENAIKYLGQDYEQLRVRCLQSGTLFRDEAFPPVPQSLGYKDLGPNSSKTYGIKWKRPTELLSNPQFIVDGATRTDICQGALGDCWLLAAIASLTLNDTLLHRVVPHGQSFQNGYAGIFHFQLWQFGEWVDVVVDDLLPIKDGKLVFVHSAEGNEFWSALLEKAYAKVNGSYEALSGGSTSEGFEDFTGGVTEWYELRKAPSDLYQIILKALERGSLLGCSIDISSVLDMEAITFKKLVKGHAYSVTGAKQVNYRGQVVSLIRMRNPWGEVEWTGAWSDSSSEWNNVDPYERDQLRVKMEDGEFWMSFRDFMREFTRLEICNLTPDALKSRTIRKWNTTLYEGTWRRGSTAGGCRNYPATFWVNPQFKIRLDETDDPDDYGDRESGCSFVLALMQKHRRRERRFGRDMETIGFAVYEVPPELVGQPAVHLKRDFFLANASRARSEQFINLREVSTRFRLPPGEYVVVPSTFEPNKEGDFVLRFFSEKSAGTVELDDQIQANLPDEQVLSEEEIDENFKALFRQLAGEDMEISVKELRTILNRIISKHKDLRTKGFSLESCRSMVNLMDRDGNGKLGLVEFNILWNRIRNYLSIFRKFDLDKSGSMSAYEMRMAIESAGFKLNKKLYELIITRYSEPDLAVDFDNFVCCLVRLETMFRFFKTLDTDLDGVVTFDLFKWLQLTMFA
- Method: Inhibitory activity evaluated against recombinant human calpain 1
Non-standard residues stand in square brackets, D forms with d. Residues, ends and D or L forms follow the SMILES beside them. *: point of attachment. Abu = CC[C@H](N)C(=O)O; Cbz = O=C(OCc1ccccc1)*; tBu = CC(C)(C)*
Readout: IC50 (nM)
Respond with the bare value in nM.

q: Quick check: IC50 on Calpain-1 catalytic subunit (Homo sapiens, UniProt P07384), item CC(C)C[C@@H](C=O)NC(=O)[C@H](Cc1ccccc1)NC(=O)[C@@H](NC(=O)OCc1ccccc1)C(C)C (Cbz-Val-Phe-Leu-aldehyde) ?
a: 31

q: Enter reported IC50 observed with Calpain-1 catalytic subunit (Homo sapiens, UniProt P07384) for CC(C)C[C@@H](C=O)NC(=O)[C@H](CC(C)C)NC(=O)[C@H](CC(C)C)NC(=O)[C@H](Cc1c[nH]cn1)NC(=O)OCc1ccccc1 (Cbz-HLLL-aldehyde)
a: 17

q: What IC50 appears in the records for this compound with Calpain-1 catalytic subunit (Homo sapiens, UniProt P07384)? CC[C@@H](C=O)NC(=O)[C@H](CC(C)C)NC(=O)OCc1ccccc1 (Cbz-Leu-[Abu]-aldehyde)
a: 10

q: Test system Calpain-1 catalytic subunit (Homo sapiens, UniProt P07384); read-out IC50; what value for CC(C)C[C@@H](C=O)NC(=O)[C@H](CC(C)C)NC(=O)[C@H](CC(C)C)NC(=O)[C@H](C)NC(=O)OCc1ccccc1 (Cbz-ALLL-aldehyde) ?
a: 6

q: Lab note: need IC50 with Calpain-1 catalytic subunit (Homo sapiens, UniProt P07384) for entry CC(=O)N[C@@H](COC(C)(C)C)C(=O)N[C@@H](CC(C)C)C(=O)N[C@H](C=O)CC(C)C (Ac-Ser(tBu)-Leu-Leu-aldehyde) , please look it up.
a: 37

q: Short answer please: IC50, Calpain-1 catalytic subunit (Homo sapiens, UniProt P07384), entry `CC(C)C[C@@H](C=O)NC(=O)[C@H](CC(C)C)NC(=O)OCc1ccccc1`
a: 8

* * *

- Target or test system: Calpain-1 catalytic subunit (Homo sapiens)
- Method: Inhibitory activity evaluated against recombinant human calpain 1
Residues, ends and D or L forms follow the SMILES beside them. *: point of attachment. Cbz = O=C(OCc1ccccc1)*
I'd be grateful if you could share measured IC50 for these entries.

q: What measured IC50 goes with CC(C)C[C@@H](C=O)NC(=O)[C@H](Cc1ccc(O)cc1)NC(=O)OCc1ccccc1 (Cbz-Tyr-Leu-aldehyde) ?
a: > 1 µM

q: Could you share which IC50 value was measured for `CC(C)C[C@@H](C=O)NC(=O)[C@H](CC(C)C)NC(=O)c1ccccc1C(=O)O` ?
a: > 1 µM

q: Record request: IC50 value, item `CC(C)C[C@@H](C=O)NC(=O)[C@H](CC(C)C)N(C)C(=O)OCc1ccccc1`
a: > 10 µM
